experiment: in vitro; settings: human, hek293t cells
measured-property: viability at 48 h, 25 µM

// query So what's the measured viability at 48 h, 25 µM for this one? C=CC(=O)NCCC(=O)N1CCc2cc(C)c([N+](=O)[O-])cc21 [3-F08]
// result 82.7%

// query So what's the measured viability at 48 h, 25 µM for this one? CCn1cc(S(=O)(=O)N2CCSSCC2)cn1 [10-N19]
// result 109%

// query So what's the measured viability at 48 h, 25 µM for this one? CC(Cl)C(=O)Nc1ccc(SC(F)F)cc1 (stereo not shown) [4-L09]
// result 71.9%

// query So what's the measured viability at 48 h, 25 µM for this one? O=C(Cc1cccc(F)c1)N1CCSSCC1 [10-L21]
// result 108%

// query So what's the measured viability at 48 h, 25 µM for this one? Cc1nn(C)c(C)c1C=C(C#N)C(=O)Nc1cccc(Cl)c1C [9-M20]
// result 111%

// query So what's the measured viability at 48 h, 25 µM for this one? C=CC(=O)N1CCC(C(=O)N2CCc3ccc([N+](=O)[O-])cc32)CC1 [1-C06]
// result 49.9%

// query So what's the measured viability at 48 h, 25 µM for this one? CCCn1c(C)cc(C=C(C#N)C(=O)Nc2ccccc2)c1C [8-H05]
// result 108%

// query So what's the measured viability at 48 h, 25 µM for this one? CC(Cl)C(=O)NCCc1ccccc1 (stereo not shown) [4-K14, 2-chloro-N-(2-phenylethyl)propanamide]
// result 102%

// query So what's the measured viability at 48 h, 25 µM for this one? CC(Cl)C(=O)N[C@H]1CN(Cc2ccccc2)C[C@@H]1c1ccccc1 (mixture of isomers) [7-N09]
// result 88.2%

// query So what's the measured viability at 48 h, 25 µM for this one? O=C(CCl)N(Cc1ccnn1C1CCC1)C1CC=CCC1 (stereo not shown) [5-I14]
// result 0.326%

// query So what's the measured viability at 48 h, 25 µM for this one? CC(Cl)C(=O)NC1CCCN(c2ncccn2)C1 (stereo not shown) [7-C21]
// result 93.1%

// query So what's the measured viability at 48 h, 25 µM for this one? CN(C(=O)CCl)C1CCN(c2ccccc2F)C1=O (stereo not shown) [5-A18]
// result 0.916%

// query So what's the measured viability at 48 h, 25 µM for this one? C=CC(=O)N(Cc1cn(C)cn1)[C@H]1CCCc2ccc(C)cc21 [1-J11]
// result 88.8%

// query So what's the measured viability at 48 h, 25 µM for this one? CCn1ccc(CN(C)C(=O)CCl)n1 [5-K06]
// result 1.77%

// query So what's the measured viability at 48 h, 25 µM for this one? CC(NC(=O)CCl)c1cc(C(F)(F)F)[nH]n1 (stereo not shown) [5-P11]
// result 0.786%

// query So what's the measured viability at 48 h, 25 µM for this one? O=C(CCl)Nc1ccc(OC(F)F)c(Cl)c1 [4-F14]
// result 0.982%

// query So what's the measured viability at 48 h, 25 µM for this one? N#CC(=Cc1ccccc1)C(=O)Nc1nncs1 [8-K09]
// result 94.2%

// query So what's the measured viability at 48 h, 25 µM for this one? COC(=O)c1c(NC(=O)CCl)sc2c1CCC(C(C)(C)C)C2 (stereo not shown) [4-J19]
// result 69.6%

// query So what's the measured viability at 48 h, 25 µM for this one? O=C(CCl)N1CCc2sccc2C1c1cccs1 (stereo not shown) [4-L20]
// result -0.242%

// query So what's the measured viability at 48 h, 25 µM for this one? C=CC(=O)N(Cc1noc2c1CCCC2)CC1CCCC1 [1-H13]
// result 113%

// query So what's the measured viability at 48 h, 25 µM for this one? C=CC(=O)Nc1ccc2ccn(CCN(C)C)c2c1 [1-L21]
// result 113%

// query So what's the measured viability at 48 h, 25 µM for this one? C=CC(=O)N1CCC(C(=O)Nc2ccc(N(C)C(C)=O)cc2)CC1 [2-D08]
// result 81.5%
